Test system: Plasmodium falciparum
measurement.notes: Effective concentration for Plasmodium falciparum 3D7
Format: functional, organism-based
condition.details: Plasmodium falciparum
Labelling field: enter 1 if recorded EC50 is less than 30 nM. Enter -1 if it equals or exceeds that cut-off.

compound	class.label
CCN(CC)CCCC(C)Nc1ccnc2ccc(OC(F)(F)F)cc12 (stereo not given)	-1
CCN(CC)CCCC(C)Nc1c2ccc(Cl)cc2nc2ccc(OC)cc12 (stereo in doubt; form 1)	1
CCN(CC)CCCNc1ccnc2ccc(OC(F)(F)F)cc12	-1
CCN(CC)CCCNc1ccnc2cc(C(F)(F)F)ccc12	-1
CCN(CC)CCCC(C)Nc1ccnc2cc(Cl)c(C)cc12 (stereo not given)	-1
